Values were extracted from PubChem BioAssay.

assay: growth suppression of PTEN-deleted HCT116, pilot screen, cell-based, HCT116 clonal line, CellTiter-Glo (AID 824); settings: 60 h, at 10 µM, stronger effect = lower value;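 note: 0% = 20 µM Hyamine control and 100% = vehicle cell control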
Results filed as inconclusive are left out.
# key: entry, value: viability
Numbers only here, please. The scale is %.

// viability lookup, compound = Cc1cc(C)n(S(=O)(=O)c2cccc(Cl)c2Cl)n1 , result: 93.6

Recorded result, CCC(=O)Nc1c2c(nn1-c1cccc(Cl)c1)CSC2 , viability: 86.1

For Cc1ccc(N(CC(=O)NC2CCC(C)CC2)S(=O)(=O)c2cccnc2)cc1 (stereo not drawn) the compound record lists viability as 98.1

compound CCN1CCN(C(=O)CS(=O)Cc2nc(-c3ccc(OC)cc3)oc2C)CC1 (stereo not drawn) , viability observed: 100

The recorded viability for COc1ccc(NC(=O)C2CCCN2S(=O)(=O)c2ccc3c(c2)CCC(=O)N3)cc1Cl (stereo not drawn) is 87.7

Memo: COc1cc(/C=N/n2cnnc2)ccc1OC(=O)c1cccnc1 , reported viability: 97.8

Sample COc1ccc(S(=O)(=O)N(CCc2ccccc2)CC(=O)N2CCOCC2)cc1 ; viability observed: 96.6

Field viability (entry Cc1cnc(C(=O)OCC(=O)Nc2cccc(Cl)c2)cn1 ) reads 92.3

The recorded viability for CC1Cn2c(nnc2-c2cccc(N)c2)S1 (stereo not drawn) is 100

# compound CCc1noc2c1/C(=N\O)CC(c1ccccc1)C2 (stereo not drawn) ; its viability = 84.8

Recorded viability (compound CC(=O)N1CCC(N(CCCOC(C)C)C(=O)Nc2ccc(Cl)cc2)CC1 ): 95.9

// viability value for COC(=O)C(Cc1ccccc1)NC(=O)CSc1nc(C)cc(=O)[nH]1 (stereo not drawn) : 91.7

Given item COc1cc2[nH]c(=O)n(CCCCCC(=O)N3CCN(c4ccccc4)CC3)c(=O)c2cc1OC , the value recorded as its viability is 52.5

For COc1cc(C(=O)Nc2ccc(S(=O)(=O)N3CCCCC3C)cc2)cc(OC)c1OC (stereo not drawn) the compound record lists viability as 65.7

Entry COc1ccc(-c2nc(CSCC(=O)N3CCN(C(=O)c4ccco4)CC3)c(C)o2)cc1OC ; viability = 103

Entry CCCN(CCC)S(=O)(=O)c1ccc(C(=O)NCc2ccc3c(c2)OCO3)cc1 ; viability = 80.3
